The values you see were collected from ChEMBL document CHEMBL1131908.

Hi there, I'd appreciate the recorded Ki for every entry that follows.
molecular target: Mu-type opioid receptor (Rattus norvegicus, UniProt P33535); assay: Ability to displace [3H]DAMGO from mu opioid receptor
Sequence (P33535 whole entry): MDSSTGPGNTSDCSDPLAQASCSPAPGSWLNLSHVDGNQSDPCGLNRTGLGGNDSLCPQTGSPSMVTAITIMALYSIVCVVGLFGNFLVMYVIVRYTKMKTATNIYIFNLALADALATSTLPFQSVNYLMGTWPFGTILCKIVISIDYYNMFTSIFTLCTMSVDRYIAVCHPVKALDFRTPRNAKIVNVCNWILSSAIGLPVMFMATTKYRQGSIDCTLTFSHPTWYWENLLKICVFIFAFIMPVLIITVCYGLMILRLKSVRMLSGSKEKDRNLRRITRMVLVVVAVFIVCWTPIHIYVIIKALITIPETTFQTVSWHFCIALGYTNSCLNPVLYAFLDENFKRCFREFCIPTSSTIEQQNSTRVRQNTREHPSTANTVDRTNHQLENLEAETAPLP
Give bare numbers, in µM.

compound="O[C@@]12Cc3c([nH]c4ccccc34)C3Oc4c(OCc5ccccc5)ccc5c4[C@@]31CCN(CC1CC1)[C@@H]2C5 (some centres undefined)" value_measured=0.396

Shifting focus to the compound that follows.
Ki for COc1ccc2c3c1OC1c4[nH]c5ccccc5c4C[C@@]4(O)[C@@H](C2)N(CC2CC2)CC[C@]314 (some centres undefined) is 2.51

###

target: Mu-type opioid receptor (Rattus norvegicus); test: Ability to inhibit binding of [3H]DAMGO to mu opioid receptor
value kind: pKi
One number for each entry, as −log10 of the molar value.

Input COc1ccc2c3c1OC1c4[nH]c5ccccc5c4C[C@@]4(O)[C@@H](C2)N(CC2CC2)CC[C@]314 (stereo partly specified) . Output pKi: 6.39

###

target: Kappa-type opioid receptor (Cavia porcellus); assay: Ability to inhibit binding of U-69,593 to kappa opioid receptor
value kind: pKi
One number for each entry, as −log10 of the molar value.

Looking up COc1ccc2c3c1OC1c4[nH]c5ccccc5c4C[C@@]4(O)[C@@H](C2)N(CC2CC2)CC[C@]314 (stereo partly specified) , I see its pKi listed as 5.75

###

target: Delta-type opioid receptor (Rattus norvegicus, UniProt P33533); assay: Ability to inhibit binding of SNC80 to delta opioid receptor
Sequence (P33533 whole entry): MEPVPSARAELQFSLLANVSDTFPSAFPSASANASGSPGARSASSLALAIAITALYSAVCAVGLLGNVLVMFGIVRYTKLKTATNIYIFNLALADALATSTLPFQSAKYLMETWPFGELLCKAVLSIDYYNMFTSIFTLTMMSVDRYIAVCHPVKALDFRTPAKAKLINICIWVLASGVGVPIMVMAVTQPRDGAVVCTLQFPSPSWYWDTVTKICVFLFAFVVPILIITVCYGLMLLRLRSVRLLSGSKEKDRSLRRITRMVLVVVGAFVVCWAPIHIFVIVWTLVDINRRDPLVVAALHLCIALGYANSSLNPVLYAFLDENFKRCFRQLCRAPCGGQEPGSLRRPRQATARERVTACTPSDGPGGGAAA
Would you mind telling me the reported pKi of each entry?
Numbers only, as −log10 of the molar value.

molecule="COc1ccc2c3c1OC1c4[nH]c5ccccc5c4C[C@@]4(O)[C@@H](C2)N(CC2CC2)CC[C@]314 (some centres not stated)" value_kind=pKi value_measured=8.05

Reported pKi ( Oc1ccc2c3c1O[C@H]1c4[nH]c5ccccc5c4C[C@@]4(O)[C@@H](C2)N(CC2CC2)CC[C@]314 ) = 10.21

###

target: Kappa-type opioid receptor (Cavia porcellus, UniProt P41144); assay: Ability to displace [3H]U-69593 from kappa opioid receptor
Sequence (P41144 whole entry): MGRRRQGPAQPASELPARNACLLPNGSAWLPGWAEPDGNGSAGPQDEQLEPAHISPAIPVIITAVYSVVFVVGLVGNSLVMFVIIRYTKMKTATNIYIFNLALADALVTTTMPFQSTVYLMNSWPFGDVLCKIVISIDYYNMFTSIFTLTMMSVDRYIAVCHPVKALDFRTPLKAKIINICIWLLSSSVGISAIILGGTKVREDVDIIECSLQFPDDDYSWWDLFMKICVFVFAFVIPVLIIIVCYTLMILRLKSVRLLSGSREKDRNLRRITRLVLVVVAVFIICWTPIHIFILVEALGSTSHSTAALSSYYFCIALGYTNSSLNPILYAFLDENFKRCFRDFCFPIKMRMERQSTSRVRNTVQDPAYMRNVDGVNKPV
For each record, write down the corresponding Ki.
Numbers only, in µM.

compound="COc1ccc2c3c1OC1c4[nH]c5ccccc5c4C[C@@]4(O)[C@@H](C2)N(CC2CC2)CC[C@]314 (some centres undefined)" value_measured=3.91

Value of measured Ki for the entry O[C@@]12Cc3c([nH]c4ccccc34)C3Oc4c(OCc5ccccc5)ccc5c4[C@@]31CCN(CC1CC1)[C@@H]2C5 (some centres undefined) : 0.728
